Hello, the source for this data is patent US20120077731A1, in case you need it.

Molecular target: T1, Human membrane IL-6R on cells (human, UniProt P08887 20-468)
T1 sequence (looked up): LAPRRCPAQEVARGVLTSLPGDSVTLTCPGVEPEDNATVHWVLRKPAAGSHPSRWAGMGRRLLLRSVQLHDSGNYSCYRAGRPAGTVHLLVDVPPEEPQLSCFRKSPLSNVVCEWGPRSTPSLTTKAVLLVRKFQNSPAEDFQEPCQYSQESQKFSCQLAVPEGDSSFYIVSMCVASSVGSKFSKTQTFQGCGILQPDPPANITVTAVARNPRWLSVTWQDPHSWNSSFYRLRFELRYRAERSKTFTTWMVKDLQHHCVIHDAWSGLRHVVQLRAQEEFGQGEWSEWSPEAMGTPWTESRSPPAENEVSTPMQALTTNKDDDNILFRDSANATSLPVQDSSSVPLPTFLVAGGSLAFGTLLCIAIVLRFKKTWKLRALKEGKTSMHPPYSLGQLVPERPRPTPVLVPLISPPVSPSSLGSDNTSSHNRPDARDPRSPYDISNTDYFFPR
Experiment: cell-based or functional assay
Result type: IC50 (nM) XG-1
One number for each entry, in nM.

Past entries and their recorded results:
# get_value(readout='IC50 (nM) XG-1', item= IL6R04 (VHH, also called PMP32C9; not shown: C-terminal c-myc and (His)6 tags) VHH: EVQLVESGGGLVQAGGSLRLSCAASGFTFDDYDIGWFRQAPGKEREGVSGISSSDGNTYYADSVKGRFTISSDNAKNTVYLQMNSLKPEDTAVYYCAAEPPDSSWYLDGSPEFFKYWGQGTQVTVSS ) 0.1

# get_value(readout='IC50 (nM) XG-1', item= IL6R14 (VHH, also called PMP40H5; not shown: C-terminal c-myc and (His)6 tags) VHH: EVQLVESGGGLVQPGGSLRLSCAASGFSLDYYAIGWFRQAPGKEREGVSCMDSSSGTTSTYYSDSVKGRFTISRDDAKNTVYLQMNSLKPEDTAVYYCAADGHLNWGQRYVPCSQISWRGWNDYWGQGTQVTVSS ) 0.6

# get_value(readout='IC50 (nM) XG-1', item= IL6R11 (VHH, also called PMP35E11; not shown: C-terminal c-myc and (His)6 tags) VHH: EVQLVESGGGLVQAGGSLRLSCAASGFTFDDYAIGWFRQAPGKEHEGVSCISSSDGSTYYADSVKGRFTISSDNAKNTVYLQMNSLKPEDTAVYYCAAERDVPARSLCGSYYWYDYRGQGTQVTVSS ) 5.4

Continuing:
# get_value(readout='IC50 (nM) XG-1', item= IL6R03 (VHH, also called PMP31A4; not shown: C-terminal c-myc and (His)6 tags) VHH: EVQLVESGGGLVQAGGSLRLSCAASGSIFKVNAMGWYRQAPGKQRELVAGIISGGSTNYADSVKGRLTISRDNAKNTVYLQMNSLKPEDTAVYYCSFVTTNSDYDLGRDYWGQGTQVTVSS ) 16.2
